target under test: human hematopoietic prostaglandin D2 synthase (Homo sapiens)
protocol summary: Inhibitory activity against spleen-type (hematopoietic) prostaglandin D2 synthase, [14C]PGH2 to PGD2, TLC
Format: biochemical
test conditions: Drug Concentration 10 μM; read-out: Inhibitory Ratio of Prostaglandin D2 (PGD2) Synthase (%)
experimental endpoint: inhibition at 10 µM (%)

Cc1nn(-c2ccccc2)c(O)c1/C=N/n1c(C)nc2c(C)cccc2c1=O [Compound 34]
71
Cc1nc2ccccc2c(=O)n1N=Cc1c(CCCC(=O)O)nn(-c2ccccc2)c1O [Compound 12]
46
CCc1nn(-c2ccccc2)c(O)c1/C=N/n1c(C)nc2ccccc2c1=O [Compound 6]
18
COc1cc2nc(C)n(/N=C/c3c(C)nn(-c4ccccc4)c3O)c(=O)c2cc1OC [Compound 38]
20
CCOC(=O)CCCc1nn(-c2ccccc2)c(O)c1C=Nn1c(C)nc2ccccc2c1=O [Compound 11]
45

A: Cc1nn(-c2ccccc2)c(O)c1/C=N/n1c(C)nc2ccc(Br)cc2c1=O [Compound 37]
B: Cc1nn(-c2ccccc2)c(O)c1/C=N/n1c(C)nc2cc(Cl)ccc2c1=O [Compound 36]
Hi there! Just curious which has the higher inhibition at 10 µM between A and B . Indicate which entry you chose by stating its label.
B

A: COc1ccc(-n2nc(C)c(C=Nn3c(C)nc4ccccc4c3=O)c2O)cc1 [Compound 19]
B: CCOc1c(/C=N/n2c(C)nc3ccccc3c2=O)c(C)nn1-c1ccccc1 [Compound 3]
Among A and B , whose measured inhibition at 10 µM is the smaller figure? Indicate which entry you chose by stating its label.
A

---

target under test: human hematopoietic prostaglandin D2 synthase (Homo sapiens, UniProt O60760)
Sequence (O60760 whole entry): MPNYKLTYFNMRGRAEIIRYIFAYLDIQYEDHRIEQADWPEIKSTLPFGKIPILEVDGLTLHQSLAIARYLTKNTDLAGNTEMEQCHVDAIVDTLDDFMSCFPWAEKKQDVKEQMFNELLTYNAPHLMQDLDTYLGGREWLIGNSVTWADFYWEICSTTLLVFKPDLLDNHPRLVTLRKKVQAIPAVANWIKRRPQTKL
protocol summary: Inhibitory activity against spleen-type (hematopoietic) prostaglandin D2 synthase, [14C]PGH2 to PGD2, TLC
Type: biochemical
test conditions: Drug Concentration 10 μM; read-out: Inhibitory Ratio of Prostaglandin D2 (PGD2) Synthase (%)
experimental endpoint: inhibition at 10 µM (%)

See these solved cases before continuing.
Cc1nn(-c2ccc([N+](=O)[O-])cc2)c(O)c1C=Nn1c(C)nc2ccccc2c1=O
37
Cc1nn(-c2ccccc2)c(O)c1/C=N/n1c(C)nc2cccc(C)c2c1=O
27
Cc1nn(-c2ccccc2Cl)c(O)c1C=Nn1c(C)nc2ccccc2c1=O
20

P: O=c1c2ccccc2nc(CO)n1/N=C/c1c(C(F)(F)F)nn(-c2ccccc2)c1O
Q: Cc1nn(-c2ccc(Cl)cc2)c(O)c1C=Nn1c(C)nc2ccccc2c1=O
R: Cc1nn(-c2ccccc2)c(O)c1/C=N/n1c(CO)nc2ccccc2c1=O
S: Cc1nn(C)c(O)c1/C=N/n1c(C)nc2ccccc2c1=O
Arrange the 4 compounds by rising inhibition at 10 µM, starting with the smallest. Please list the labels according to the requested order.
S, P, Q, R
(S: -2%, P: 19%, Q: 29%, R: 86%)

I: Cc1ccc(-n2nc(C)c(C=Nn3c(C)nc4ccccc4c3=O)c2O)cc1
II: Cc1nn(-c2ccccc2)c(O)c1/C=N/n1c(C)nc2ccc(Cl)cc2c1=O
Hi there! Just curious which has the higher inhibition at 10 µM between I and II . Indicate which entry you chose by stating its label.
I
(I: 23%, II: 15%)
